Hello, the source for this data is paper PMC10397247, in case you need it.

Molecular target: T1, O12-bA
T1 chain: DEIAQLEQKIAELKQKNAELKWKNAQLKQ
Assay: two-hybrid library CCNG1;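 also: natural log of median RNA to DNA barcode read ratio; higher means stronger binding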
EXPERIMENTAL READOUT: interaction score

// known answers, use as guide
| BINDER | interaction score |
| --- | --- |
| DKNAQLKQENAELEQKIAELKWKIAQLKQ [O10-bA] | -0.395 |
| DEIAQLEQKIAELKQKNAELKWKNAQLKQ [O12-bA] | -1.51 |

(a) DKNAQLKQENAELEQEIAELEWEIAQLEQ [O1-bA]
(b) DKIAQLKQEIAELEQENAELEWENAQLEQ [O11-bA]
Problem: Sorting by interaction score in descending order, would a or b appear first? Answer format: the label of the selected item.
Result: b
(b: 2.25, a: -0.825)
